Give measured self-cleavage for each item. Keep answers brief.
B1: HDV Ribozyme (parent)
chain: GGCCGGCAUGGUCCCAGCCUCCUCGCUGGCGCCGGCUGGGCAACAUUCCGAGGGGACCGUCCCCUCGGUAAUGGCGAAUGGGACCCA

- Variants of: B1
- Measurement Notes: self-cleavage, relative activity (ratio to wild type); higher = more cleavage; co-transcriptional
Respond numerically, and do not add a unit to the figure.

Request: Consider the variant C63G U79G . State its measured self-cleavage.
Response: 0.692

Request: Output measured self-cleavage for this item: G5A A45G
Response: 0.196

Request: Identify the reported self-cleavage for the following entry. G54C G55A
Response: 1.08

Request: // fetch self-cleavage given entry C57G A78C
Response: 0.0959

Request: Answer with the recorded self-cleavage for the variant listed here: C7U C64A
Response: 0.923

Request: Using known records, supply self-cleavage for U69G U79G
Response: 0.895

Request: Respond only with self-cleavage recorded for A8U C48U
Response: 1.13

Request: Provide only the value of recorded self-cleavage for C14A A16U
Response: 0.923

Request: Hello, please tell me recorded self-cleavage for this one: G11U C66G
Response: 0.397

Request: Kindly indicate its recorded self-cleavage. Item: G59U C63G
Response: 0.767

Request: Specify reported self-cleavage for the variant shown: U37C A83U
Response: 0.534

FYI, the data here is from the RNAGym collection of RNA variant scans (doi:10.7554/elife.80360).
